property.name: melting point

FCc1cc(Cl)n2nc(SCc3ccccc3)nc2n1 | 81 to 86 °C

The value of melting point measured for the molecule `CC(C)(C)OC(=O)N1CCC(c2nc3cc(-c4ccc(S(C)(=O)=O)c(F)c4)ccc3o2)CC1` turned out to be 174 to 178 °C

The value of melting point measured for the molecule `COc1cc(Nc2c(C#N)cnc3cc4cc(OCCCN5CCOCC5)c(OC)cc4cc23)c(Cl)cc1Cl` turned out to be 205 to 208 °C

The value of melting point measured for the molecule `Cn1cnc(COc2nn3c(-c4ccc(F)cc4)nnc3cc2-c2ccccc2)n1` turned out to be 233 to 235 °C

The value of melting point measured for the molecule `COC(=O)c1cccc2nc(SCCN3CCN(CC(=O)Nc4c(C(C)C)cccc4C(C)C)CC3)oc12` turned out to be 159 to 161 °C
